Tested on: T1, human GIP receptor (human, UniProt P48546 22-466)
T1 sequence (looked up): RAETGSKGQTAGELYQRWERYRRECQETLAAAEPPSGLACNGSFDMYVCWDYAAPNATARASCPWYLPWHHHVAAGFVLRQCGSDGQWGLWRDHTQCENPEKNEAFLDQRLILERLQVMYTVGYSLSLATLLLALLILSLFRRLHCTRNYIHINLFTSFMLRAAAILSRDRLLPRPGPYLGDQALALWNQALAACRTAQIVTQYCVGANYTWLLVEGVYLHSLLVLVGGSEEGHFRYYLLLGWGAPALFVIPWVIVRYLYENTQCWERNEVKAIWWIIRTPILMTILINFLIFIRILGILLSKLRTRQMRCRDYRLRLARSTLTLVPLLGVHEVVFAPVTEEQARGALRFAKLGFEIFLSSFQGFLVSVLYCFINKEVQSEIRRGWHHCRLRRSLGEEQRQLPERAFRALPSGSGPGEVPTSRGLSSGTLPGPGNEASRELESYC
Assay method text: cell-based or functional assay
Starred links: 1 amine or outer side, 2 acyl side, 3 side chain; linkers in the order of their positions; H or OH if unused. Non-standard residues stand in square brackets, D forms with d. Groups on a side chain read outwards from the residue. No end group written: not given here. *: point of attachment. C20 diacid = O=C(O)CCCCCCCCCCCCCCCCCCC(=O)*; γGlu = O=C(O)[C@H](CCC(=O)[*:2])N[*:1]; Aib = CC(C)(N)C(=O)O
Measure name: EC50, CreLuc assay, 0.5% hP (nM)
Report the value in nM with no unit label.

Answered examples (2):
| Binder | Endpoint unit | EC50, CreLuc assay, 0.5% hP |
| --- | --- | --- |
| YXEGTFTSDYSIXLEKQAQXAFVEWLIKGGPSSGESXRHYYNWLTRQRY (Aib at 2, 13, 20, 37; K28 side chain: C20DA-gGlu-gGlu-gGlu-gGlu-gGlu-gGlu-eLys; C-terminal NH2) [Compound 49] | nM | 0.07 |
| Y[Aib]EGTFTSDYSI[Aib]LEKQAQ[Aib]AFVEWLIK([γGlu-γGlu-γGlu-γGlu-γGlu-γGlu-C20 diacid])GGGSEYVSLRHYYNWLTRQRY-NH2 (also: TFA salt) [Compound 65] | nM | 1.03 |

Moving on to another binder below.
Reported EC50, CreLuc assay, 0.5% hP of YXEGTFTSDYSIXLEKQAQXAFVEWLIKGGPSSPQSLRHYYNWLTRQRY (Aib at 2, 13, 20; K28 side chain: C20DA-gGlu-gGlu-gGlu-gGlu-gGlu-gGlu-eLys; C-terminal NH2) [Compound 41] : 0.07

Cited source for all entries: patent US20240247080A1
